Entry source: paper PMC9482650

Target: DLG4_3, P78352
Sequence (P78352 306-403): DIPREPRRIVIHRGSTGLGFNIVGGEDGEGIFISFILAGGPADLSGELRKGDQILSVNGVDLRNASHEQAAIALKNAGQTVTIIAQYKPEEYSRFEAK
Assay: holdup assay
Set-up: key: below the threshold = too weak to quantify, mostly under pKd 3.1 to 4
Settings: plain residues with an end cap or a label only (N-terminal biotin on a linker: ado-ado)
VALUE TYPE: pKd

Here is how some binders turned out for pKd.
                         binder  value_type           meas_value
0  SAGADSETHC [SLCO1B1, Q9Y6L6]         pKd  below the threshold
1    YAEKRMLTEV [KCNA6, P17658]         pKd                 3.74
2   PLATCDETSI [SEMA4F, O95754]         pKd  below the threshold
3    TFSRRPKTRV [CD226, Q15762]         pKd                 3.84
4     HDDYFYHDEL [RCN2, Q14257]         pKd                 3.53

Ask: In one line, give reported pKd of the entry NKSEPFLTWL [WWTR1, Q9GZV5] .
Result: below the threshold

Ask: State, in one line, measured pKd of GNDPDRGTSI [GRID2, O43424]
Result: below the threshold

Ask: Using the record for GDSSRKEYFI [GYPC, P04921] , state its measured pKd.
Result: below the threshold

Ask: Check the records and state pKd for PSVYSRSQYV [CLDN8, P56748]
Result: below the threshold

Ask: Give pKd for the following binder: EKPIDSETKM [SLC1A3, P43003]
Result: below the threshold

Ask: Provide pKd value for the following binder: QRYPGNQTTC [CCL24, O00175]
Result: below the threshold
